For Adenosine receptor A2a (Homo sapiens), measured AC50 is reported for the entries below.

{"columns": ["compound", "result"],
 "data": [
  ["c1ccc(C2(N3CCCCC3)CCCCC2)cc1", "> 30 µM"],
  ["CC(C(=O)O)c1ccc2c(c1)CC(=O)c1ccccc1S2 (stereo not given)", "> 30 µM"],
  ["CCCc1cc(=O)[nH]c(=S)[nH]1", "> 10 µM"],
  ["C/C=C(/C(=C/C)c1ccc(O)cc1)c1ccc(O)cc1", "> 30 µM"]
]}

Quick one: AC50 for Cc1ccccc1N1C(=O)c2cc(S(N)(=O)=O)c(Cl)cc2NC1C (stereo not given) ?
> 10 µM

---

List of AC50 values.
target desc: Melanocortin receptor 3 (Homo sapiens, UniProt P41968); note: assay procedure not described here
Sequence (P41968 whole entry): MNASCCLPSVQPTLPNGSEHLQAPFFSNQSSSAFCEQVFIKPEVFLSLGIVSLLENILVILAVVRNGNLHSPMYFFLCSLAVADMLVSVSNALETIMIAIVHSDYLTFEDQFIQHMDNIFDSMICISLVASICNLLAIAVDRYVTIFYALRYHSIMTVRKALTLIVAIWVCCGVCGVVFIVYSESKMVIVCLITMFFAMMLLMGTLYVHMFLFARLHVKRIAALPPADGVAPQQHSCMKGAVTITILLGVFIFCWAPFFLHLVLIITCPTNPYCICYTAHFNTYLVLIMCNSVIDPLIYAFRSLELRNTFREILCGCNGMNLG
Where a SMILES comes first, the peptide text is derived from it. [ ]: non-standard residue; d: D form. pGlu = O=C1CC[C@@H](C(=O)O)N1; Thz = O=C(O)[C@@H]1CSCN1

{"columns": ["compound", "result type", "result"],
 "data": [
  ["O=C1CC[C@@H](C(=O)N2CSC[C@H]2C(=O)O)N1 [PIDOTIMOD] ([pGlu]-[Thz]-OH)", "AC50", "> 30 µM"],
  ["CC(O)(CS(=O)(=O)c1ccc(F)cc1)C(=O)Nc1ccc(C#N)c(C(F)(F)F)c1 (configuration not stated) [BICALUTAMIDE]", "AC50", "> 30 µM"],
  ["CC/C=C\\C/C=C\\C/C=C\\C/C=C\\C/C=C\\CCCC(=O)OCC [ICOSAPENT ETHYL]", "AC50", "> 30 µM"],
  ["NS(=O)(=O)c1cc2c(cc1Cl)N=C(CSCc1ccccc1)NS2(=O)=O [BENZTHIAZIDE]", "AC50", "> 10 µM"],
  ["CCN1CC(CCN2CCOCC2)C(c2ccccc2)(c2ccccc2)C1=O (configuration not stated) [DOXAPRAM]", "AC50", "> 30 µM"]
]}

Endpoint output: AC50 of CN(Cc1cnc2nc(N)nc(N)c2n1)c1ccc(C(=O)N[C@@H](CCC(=O)O)C(=O)O)cc1 [METHOTREXATE] . Value?
> 30 µM

Returns the measured AC50 for the input compound. Input: Cc1ccc(C)c(OCCCC(C)(C)C(=O)O)c1 [GEMFIBROZIL]
> 30 µM

Report AC50 for CCOC(=O)c1ccc(N)cc1 [BENZOCAINE] please.
> 10 µM

For the compound shown here, O=C1OC(OC(=O)c2cccnc2Nc2cccc(C(F)(F)F)c2)c2ccccc21 (configuration not stated) [TALNIFLUMATE] , give the reported AC50.
> 30 µM

Name the reported AC50 value associated with the compound COc1cc(C(=O)OCc2cccc(COC(=O)c3cc(OC)c(OC)c(OC)c3)n2)cc(OC)c1OC [PIROZADIL]
> 30 µM

Please look up its AC50: CC(C(=O)O)c1ccc2c(c1)CC(=O)c1ccccc1S2 (configuration not stated) [ZALTOPROFEN]
> 30 µM

I would be grateful if you could share the reported AC50 for S=P(N1CC1)(N1CC1)N1CC1 [THIOTEPA] .
> 30 µM

---

target desc: Muscarinic acetylcholine receptor M2 (Homo sapiens, UniProt P08172); note: assay procedure not described here
Sequence (P08172 whole entry): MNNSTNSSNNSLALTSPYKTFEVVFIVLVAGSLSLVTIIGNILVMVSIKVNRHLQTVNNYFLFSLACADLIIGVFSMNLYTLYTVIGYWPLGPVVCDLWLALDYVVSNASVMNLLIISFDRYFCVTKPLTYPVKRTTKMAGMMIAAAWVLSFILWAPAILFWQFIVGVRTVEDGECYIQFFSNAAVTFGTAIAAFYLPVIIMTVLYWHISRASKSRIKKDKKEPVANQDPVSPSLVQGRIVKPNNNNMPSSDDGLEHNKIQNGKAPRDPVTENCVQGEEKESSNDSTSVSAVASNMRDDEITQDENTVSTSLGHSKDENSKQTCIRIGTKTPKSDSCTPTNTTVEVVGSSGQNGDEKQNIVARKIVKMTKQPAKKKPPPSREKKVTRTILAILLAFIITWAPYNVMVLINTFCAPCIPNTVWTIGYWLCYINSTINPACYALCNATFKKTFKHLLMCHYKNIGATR
Assay type: functional, cell-based
Collected AC50 values appear next to each entry.

{"columns": ["compound", "target desc", "AC50"],
 "data": [
  ["CC(c1cc2ccccc2s1)N(O)C(N)=O (configuration not stated)", "Muscarinic acetylcholine receptor M2 (Homo sapiens, UniProt P08172)", "> 10 µM"],
  ["CC(CN(C)C)C(C)(O)Cc1ccc(Cl)cc1 (configuration not stated)", "Muscarinic acetylcholine receptor M2 (Homo sapiens, UniProt P08172)", "> 10 µM"],
  ["COc1ccc([C@@H]2CC(=O)c3c(O)cc(O)cc3O2)cc1O", "Muscarinic acetylcholine receptor M2 (Homo sapiens, UniProt P08172)", "> 10 µM"],
  ["CC[C@@H](CO)NC(=O)[C@@H]1C=C2c3cccc4c3c(cn4C)C[C@H]2N(C)C1 [METHYSERGIDE]", "Muscarinic acetylcholine receptor M2 (Homo sapiens, UniProt P08172)", "> 30 µM"],
  ["Clc1ccc(Cn2c(CN3CCCC3)nc3ccccc32)cc1", "Muscarinic acetylcholine receptor M2 (Homo sapiens, UniProt P08172)", "> 10 µM"],
  ["Cc1ccccc1-n1c(CF)nc2ccc(N)cc2c1=O", "Muscarinic acetylcholine receptor M2 (Homo sapiens, UniProt P08172)", "> 10 µM"],
  ["OC[C@H]1O[C@@H](Oc2cc(O)cc(/C=C/c3ccc(O)cc3)c2)[C@H](O)[C@@H](O)[C@@H]1O", "Muscarinic acetylcholine receptor M2 (Homo sapiens, UniProt P08172)", "> 30 µM"],
  ["O=c1[nH]c2ccccc2n1CCCN1CCN(C(c2ccccc2)c2ccccc2)CC1 [OXATOMIDE]", "Muscarinic acetylcholine receptor M2 (Homo sapiens, UniProt P08172)", "6.6 µM"],
  ["CC1(C)S[C@@H]2[C@H](NC(=O)C(C(=O)O)c3ccccc3)C(=O)N2[C@H]1C(=O)O (some centres not stated)", "Muscarinic acetylcholine receptor M2 (Homo sapiens, UniProt P08172)", "> 30 µM"],
  ["CCOC(=O)c1ncn2c1CN(C)C(=O)c1cc(F)ccc1-2", "Muscarinic acetylcholine receptor M2 (Homo sapiens, UniProt P08172)", "> 30 µM"]
]}

AC50 of "Oc1ccc(CCNCCCCCCNCCc2ccccc2)cc1O" on Muscarinic acetylcholine receptor M2 (Homo sapiens, UniProt P08172)?
> 30 µM

Query AC50 on Muscarinic acetylcholine receptor M2 (Homo sapiens, UniProt P08172) for "C[N+](C)(C)CCOP(=O)(O)OP(=O)([O-])OC[C@H]1O[C@@H](n2ccc(N)nc2=O)[C@H](O)[C@@H]1O"
> 30 µM

Return AC50 measured with Muscarinic acetylcholine receptor M2 (Homo sapiens, UniProt P08172) given this compound: CC1=C(C(=O)OC(C)C)C(c2cccc([N+](=O)[O-])c2)C(C(=O)OC2CN(C(c3ccccc3)c3ccccc3)C2)=C(N)N1 (configuration not stated)
> 30 µM

Give recorded AC50 with Muscarinic acetylcholine receptor M2 (Homo sapiens, UniProt P08172) for the following compound: Cc1cc(=O)n(-c2ccccc2)n1C [ANTIPYRINE]
> 10 µM

Lookup: AC50 / Muscarinic acetylcholine receptor M2 (Homo sapiens, UniProt P08172) / NC(=O)NC(=O)Cc1ccccc1 [PHENACEMIDE]
> 10 µM

Missing value: AC50, Muscarinic acetylcholine receptor M2 (Homo sapiens, UniProt P08172), entry "CCOc1nc2cccc(C(=O)O)c2n1Cc1ccc(-c2ccccc2-c2nnn[nH]2)cc1" . Fill in?
> 30 µM

What AC50 appears in the records for this compound with Muscarinic acetylcholine receptor M2 (Homo sapiens, UniProt P08172)? "CN(C)CCCN1c2ccccc2CCc2ccccc21"
4.3 µM

# value lookup — system Muscarinic acetylcholine receptor M2 (Homo sapiens, UniProt P08172), readout AC50, item CC(=O)c1ccc(S(=O)(=O)NC(=O)NC2CCCCC2)cc1 [ACETOHEXAMIDE]; note: assay procedure not described here
> 10 µM

// lookup AC50 | system=Muscarinic acetylcholine receptor M2 (Homo sapiens, UniProt P08172) | key= CCCCCCCN(CC)CCCC(O)c1ccc(NS(C)(=O)=O)cc1 (configuration not stated) [IBUTILIDE]; note: assay procedure not described here
22 µM

Under Muscarinic acetylcholine receptor M2 (Homo sapiens, UniProt P08172): AC50 value of "C[C@]12CCC(=O)C[C@@H]1CC[C@@H]1[C@@H]2CC[C@]2(C)[C@@H](O)CC[C@@H]12" ?
> 30 µM

Provide value of AC50 for this record tested with Muscarinic acetylcholine receptor M2 (Homo sapiens, UniProt P08172): "Cc1ccc(C)c(OCCCC(C)(C)C(=O)O)c1"
> 10 µM

Lookup: AC50 / Muscarinic acetylcholine receptor M2 (Homo sapiens, UniProt P08172) / "O=S1(=O)CCN(CN2CCS(=O)(=O)NC2)CN1"
> 30 µM

Report AC50 for CCN1CCCC1CNC(=O)c1cc(S(=O)(=O)CC)ccc1OC (configuration not stated) [SULTOPRIDE] tested on Muscarinic acetylcholine receptor M2 (Homo sapiens, UniProt P08172). Note: assay procedure not described here.
> 30 µM

Reported AC50 for Muscarinic acetylcholine receptor M2 (Homo sapiens, UniProt P08172), given CN1Cc2c(N)cccc2C(c2ccccc2)C1 (configuration not stated) ?
> 30 µM
